// provenance: paper PMC8809517

- Target Or System: T1, GFP-9S library array, motif 4 ND N98I;D124L (synthetic construct, N98I;D124L)
- T1 chain: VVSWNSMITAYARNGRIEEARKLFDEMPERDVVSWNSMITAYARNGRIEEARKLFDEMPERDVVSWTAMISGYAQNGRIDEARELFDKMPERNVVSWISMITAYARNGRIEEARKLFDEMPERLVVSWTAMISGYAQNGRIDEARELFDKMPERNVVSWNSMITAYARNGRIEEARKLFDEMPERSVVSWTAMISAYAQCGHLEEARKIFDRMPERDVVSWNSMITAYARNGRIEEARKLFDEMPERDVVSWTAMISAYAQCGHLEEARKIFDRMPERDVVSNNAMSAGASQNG
- Test Details: high-throughput RNA pulldown from lysate on Ni-NTA beads; HRP: 50 mM Tris pH 8, 150 mM NaCl, 1 mM beta-mercaptoethanol, 50 ug/ml BSA, 3 ug/ml yeast RNA, 0.5% heparin; ITC and FP: Tris pH 8, 200 mM KCl, 5% glycerol; MST: 50 mM Tris pH 8, 200 mM NaCl, 1 mM DTT, BSA, heparin, 0.05% Tween 20
- Recorded Conditions: tags: N-terminal His-eGFP; label: 5' Cy5
Measured Property: pKd
Here pKd is given on a logarithmic scale as minus log10 of the concentration in mol/L.

AUUACACGUGA (ssRNA) [Cy5-rpoA]
6.98

# input for lookup
For AUUAGACGUGA (ssRNA) [Cy5-rpoA-G] the binder record lists pKd as 6.89
